- Test system: 883617-216-R-J1-PDC complex spheroids, growth, % test/control
- protocol details: Anticancer human tumor 883617-216-R-J1-PDC patient-derived bladder carcinoma cell line growth inhibition [AhR]
- setup conditions: curve of first compound; second compound 0.1 µM
quantity name: IC50 (nM)

molecule="NS(=O)(=O)OCC1CC(n2ccc3c(NC4CCc5ccccc54)ncnc32)CC1O (stereo unspecified) + Cc1cncc(-c2nc(NCCc3c[nH]c4ccccc34)c3ncn(C(C)C)c3n2)c1" experimental_value=2750

a: CCc1c2c(nc3ccc(O)cc13)-c1cc3c(c(=O)n1C2)COC(=O)[C@]3(O)CC + Cc1cncc(-c2nc(NCCc3c[nH]c4ccccc34)c3ncn(C(C)C)c3n2)c1
b: NS(=O)(=O)OCC1CC(n2ccc3c(NC4CCc5ccccc54)ncnc32)CC1O (stereo unspecified) + Cc1ccccc1N=Nc1ccc(NC(=O)c2ccnn2C)c(C)c1
c: O=C(C=Cn1cnc(-c2cc(C(F)(F)F)cc(C(F)(F)F)c2)n1)NNc1cnccn1 + CC(CO)NC(=O)c1cc(-c2ccc(Cl)cc2)nn(-c2cnn(C)c2)c1=O
d: Nc1ccccc1NC(=O)c1ccc(CNC(=O)OCc2cccnc2)cc1 + Cc1ccccc1N=Nc1ccc(NC(=O)c2ccnn2C)c(C)c1
**Q:** Ordering: ascending IC50. The reply should contain the labels ordered as requested.
**A:** c, a, d, b

###

- System: 883617-216-R-J1-PDC complex spheroids, growth, % test/control
- protocol details: Anticancer human tumor 883617-216-R-J1-PDC cell line growth inhibition [AhR];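 note: exposure lasted 7 days after dosing on day 3 of spheroid growth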
- setup conditions: second compound 1 µM; first compound 3.16 µM; stronger effect = lower value
quantity name: viability, T/C (%)
Numeric only. Scale: %

// below: answered compounds
compound="COc1cc(C2c3cc4c(cc3C(OC3OC5COC(C)OC5C(O)C3O)C3COC(=O)C23)OCO4)cc(OC)c1O (configuration not stated) + Cc1ccccc1N=Nc1ccc(NC(=O)c2ccnn2C)c(C)c1" experimental_value=72.1
compound="CC1(C)CCC(CN2CCN(c3ccc(C(=O)NS(=O)(=O)c4ccc(NCC5CCOCC5)c([N+](=O)[O-])c4)c(Oc4cnc5[nH]ccc5c4)c3)CC2)=C(c2ccc(Cl)cc2)C1 + Cc1cncc(-c2nc(NCCc3c[nH]c4ccccc34)c3ncn(C(C)C)c3n2)c1" experimental_value=82.5
compound="COc1ccc([C@@H](O)c2cc(-c3ncnc4cc(N5CCOCC5)ccc34)c(F)cc2Cl)nn1 + Cc1ccccc1N=Nc1ccc(NC(=O)c2ccnn2C)c(C)c1" experimental_value=47.2
compound="NS(=O)(=O)OCC1CC(n2ccc3c(NC4CCc5ccccc54)ncnc32)CC1O (configuration not stated) + CC(CO)NC(=O)c1cc(-c2ccc(Cl)cc2)nn(-c2cnn(C)c2)c1=O" experimental_value=30.7
compound="O=C(C=Cc1cccc(S(=O)(=O)Nc2ccccc2)c1)NO + Cc1cncc(-c2nc(NCCc3c[nH]c4ccccc34)c3ncn(C(C)C)c3n2)c1" experimental_value=39.1

**Q:** What value of measured viability, T/C is listed for CC(C)c1c(-c2ccccc2)nc2c(C#N)c[nH]n2c1=O + Cc1cncc(-c2nc(NCCc3c[nH]c4ccccc34)c3ncn(C(C)C)c3n2)c1 ?
**A:** 102

###

- Test system: 883617-216-R-J1-PDC complex spheroids, growth, % test/control
- protocol details: Anticancer human tumor 883617-216-R-J1-PDC cell line growth inhibition [AhR];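 note: exposure lasted 7 days after dosing on day 3 of spheroid growth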
- setup conditions: second compound 1 µM; first compound 0.0949 µM; stronger effect = lower value
quantity name: viability, T/C (%)
Provide the reading as a plain figure in %.

Example results:
compound="O=C(C=Cn1cnc(-c2cc(C(F)(F)F)cc(C(F)(F)F)c2)n1)NNc1cnccn1 + CC(CO)NC(=O)c1cc(-c2ccc(Cl)cc2)nn(-c2cnn(C)c2)c1=O" quantity_name="viability, T/C" scale_unit=% experimental_value=65
compound="CC(C)CC(NC(=O)C(Cc1ccccc1)NC(=O)c1cnccn1)B(O)O (stereo not drawn) + Cc1cncc(-c2nc(NCCc3c[nH]c4ccccc34)c3ncn(C(C)C)c3n2)c1" quantity_name="viability, T/C" scale_unit=% experimental_value=0.05

**Q:** Give the measured viability, T/C of O=C(C=Cn1cnc(-c2cc(C(F)(F)F)cc(C(F)(F)F)c2)n1)NNc1cnccn1 + Cc1ccccc1N=Nc1ccc(NC(=O)c2ccnn2C)c(C)c1 .
**A:** 58

###

- System: 883617-216-R-J1-PDC complex spheroids, growth, % test/control
- protocol details: Anticancer human tumor 883617-216-R-J1-PDC cell line growth inhibition [AhR];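 note: exposure lasted 7 days after dosing on day 3 of spheroid growth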
- setup conditions: second compound 10 µM; first compound 3.16 µM; stronger effect = lower value
quantity name: viability, T/C (%)
Please respond with the number in % and leave the unit unwritten.

# count of solved cases: 2
compound="Nc1ccn(C2OC(CO)C(O)C2(F)F)c(=O)n1 (centres undefined) + Cc1cncc(-c2nc(NCCc3c[nH]c4ccccc34)c3ncn(C(C)C)c3n2)c1" study_target="883617-216-R-J1-PDC complex spheroids, growth, % test/control" quantity_name="viability, T/C" experimental_value=15.8
compound="CC1(C)CCC(CN2CCN(c3ccc(C(=O)NS(=O)(=O)c4ccc(NCC5CCOCC5)c([N+](=O)[O-])c4)c(Oc4cnc5[nH]ccc5c4)c3)CC2)=C(c2ccc(Cl)cc2)C1 + Cc1ccccc1N=Nc1ccc(NC(=O)c2ccnn2C)c(C)c1" study_target="883617-216-R-J1-PDC complex spheroids, growth, % test/control" quantity_name="viability, T/C" experimental_value=74

**Q:** Quick check: viability, T/C on 883617-216-R-J1-PDC complex spheroids, growth, % test/control, item O=C(C=Cc1cccc(S(=O)(=O)Nc2ccccc2)c1)NO + Cc1ccccc1N=Nc1ccc(NC(=O)c2ccnn2C)c(C)c1 ?
**A:** 32

**Q:** # repeat for COc1cccc2c1C(=O)c1c(O)c3c(c(O)c1C2=O)CC(O)(C(=O)CO)CC3OC1CC(N)C(O)C(C)O1 (centres undefined) + CC(CO)NC(=O)c1cc(-c2ccc(Cl)cc2)nn(-c2cnn(C)c2)c1=O
**A:** 1.75

###

- Tested on: 883617-216-R-J1-PDC complex spheroids, growth, % test/control
- protocol details: Anticancer human tumor 883617-216-R-J1-PDC cell line growth inhibition [AhR];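 note: exposure lasted 7 days after dosing on day 3 of spheroid growth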
- setup conditions: second compound 1 µM; first compound 0.000949 µM; stronger effect = lower value
quantity name: viability, T/C (%)
Quick reminder: number only, in %, skip the unit.

Worked set:
compound="CC(C)CC(NC(=O)C(Cc1ccccc1)NC(=O)c1cnccn1)B(O)O (stereo not drawn) + Cc1ccccc1N=Nc1ccc(NC(=O)c2ccnn2C)c(C)c1" experimental_value=84.8
compound="CCc1c2c(nc3ccc(O)cc13)-c1cc3c(c(=O)n1C2)COC(=O)[C@]3(O)CC + CC(CO)NC(=O)c1cc(-c2ccc(Cl)cc2)nn(-c2cnn(C)c2)c1=O" experimental_value=83.1

**Q:** Entry Nc1ncn(C2CC(O)C(CO)S2)c(=O)n1 (stereo not drawn) + Cc1ccccc1N=Nc1ccc(NC(=O)c2ccnn2C)c(C)c1 : reported viability, T/C = ?
**A:** 84.3

###

- Test system: 883617-216-R-J1-PDC complex spheroids, growth, % test/control
- protocol details: Anticancer human tumor 883617-216-R-J1-PDC cell line growth inhibition [AhR];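 note: exposure lasted 7 days after dosing on day 3 of spheroid growth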
- setup conditions: second compound 0.316 µM; first compound 10 µM; stronger effect = lower value
quantity name: viability, T/C (%)
Expressed in %, but write only the number.

Below are worked cases with known answers.
molecule="NS(=O)(=O)OCC1CC(n2ccc3c(NC4CCc5ccccc54)ncnc32)CC1O (configuration not stated) + Cc1cncc(-c2nc(NCCc3c[nH]c4ccccc34)c3ncn(C(C)C)c3n2)c1" experimental_value=25.9
molecule="CC1COCCN1c1cc(C2(S(C)(=N)=O)CC2)nc(-c2ccnc3[nH]ccc23)n1 (configuration not stated) + CC(CO)NC(=O)c1cc(-c2ccc(Cl)cc2)nn(-c2cnn(C)c2)c1=O" experimental_value=72.1
molecule="Nc1ccn(C2OC(CO)C(O)C2(F)F)c(=O)n1 (configuration not stated) + Cc1ccccc1N=Nc1ccc(NC(=O)c2ccnn2C)c(C)c1" experimental_value=37.5
molecule="O=C(c1cc(Cc2n[nH]c(=O)c3ccccc23)ccc1F)N1CCN(C(=O)C2CC2)CC1 + CC(CO)NC(=O)c1cc(-c2ccc(Cl)cc2)nn(-c2cnn(C)c2)c1=O" experimental_value=87.1

**Q:** Fill in: viability, T/C of Nc1ccccc1NC(=O)c1ccc(CNC(=O)OCc2cccnc2)cc1 + Cc1ccccc1N=Nc1ccc(NC(=O)c2ccnn2C)c(C)c1 is ___
**A:** 1.3

**Q:** Please answer likewise for CC1(C)CCC(CN2CCN(c3ccc(C(=O)NS(=O)(=O)c4ccc(NCC5CCOCC5)c([N+](=O)[O-])c4)c(Oc4cnc5[nH]ccc5c4)c3)CC2)=C(c2ccc(Cl)cc2)C1 + Cc1cncc(-c2nc(NCCc3c[nH]c4ccccc34)c3ncn(C(C)C)c3n2)c1
**A:** 29

**Q:** Note, next up: Nc1ccccc1NC(=O)c1ccc(CNC(=O)OCc2cccnc2)cc1 + Cc1cncc(-c2nc(NCCc3c[nH]c4ccccc34)c3ncn(C(C)C)c3n2)c1
**A:** 0.94

Numbers sourced from PubChem BioAssay AID1919004.
